Values compiled from PubChem BioAssay.

Reported growth inhibition values are given for each entry in this list.
Assay: S. cerevisiae growth inhibition in permissive medium (OD615), pilot counter-assay for S. cerevisiae lifespan shortening project, permissive growth control (AID 705)
Conditions: OD615, 24 h, at 10 µM, stronger effect = higher value
Active and inactive are the calls of the source.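 The calls were made as follows: active = growth inhibition above 25% in both replicates, a cutoff set 3 SD above the mean; inconclusive = above 25% in only one replicate; inactive = the rest.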

- compound: "CCOc1cc(C2C3=C(CCCC3=O)N(C)C3=C2C(=O)CCC3)cc(Cl)c1O"
  growth inhibition: "-11.5% (inactive)"
- compound: "CCOC(=O)c1ccc(NC(=O)Cn2cc3c(n2)CCC(C)C3)cc1 (centres undefined)"
  growth inhibition: "-3.82% (inactive)"
- compound: "CSc1cccc(NS(=O)(=O)c2ccc3c(c2)oc(=O)n3C)c1"
  growth inhibition: "-0.15% (inactive)"
- compound: "CCOC(=O)c1ccccc1NC(=O)C1COc2ccccc2O1 (centres undefined)"
  growth inhibition: "-25.8% (inactive)"
- compound: "Cc1ccc(NC(=O)c2cc(-c3ccc(C)o3)nc3ccccc23)nc1"
  growth inhibition: "3.23% (inactive)"
- compound: "O=C(Nc1ncc(Cc2ccccc2)s1)C1CCCO1 (centres undefined)"
  growth inhibition: "-14.2% (inactive)"
- compound: "O=C(Nc1cccc2ccccc12)c1ccc(Br)o1"
  growth inhibition: "-10% (inactive)"
- compound: "Cc1ccc(Cn2c(CN3CCOCC3)nc3c2c(=O)n(C)c(=O)n3C)cc1"
  growth inhibition: "-18% (inactive)"

Consider the additional compound presented here.
// recorded growth inhibition for COc1ccc(NC(=O)CSc2nnc(Cc3cccn3C)n2-c2ccc(F)cc2)cc1 : 4.66% (inactive)

----------
Assay: S. cerevisiae growth inhibition in permissive medium (OD615), pilot counter-assay for S. cerevisiae lifespan shortening project, permissive growth control (AID 705)
Details: OD615, 24 h, at 10 µM, stronger effect = higher value
The source made the active and inactive calls.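 The calls were made as follows: active = growth inhibition above 25% in both replicates, a cutoff set 3 SD above the mean; inconclusive = above 25% in only one replicate; inactive = the rest.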
measured-metric: growth inhibition

Observe how each entry below is paired with its result.
- compound: "CCCCN(C)C(=O)c1ccc(CS(=O)(=O)c2ccccc2C)o1"
  assay-result: "6.16% (inactive)"
- compound: "O=c1oc2c3c4c(cc2s1)CCCN4CCC3"
  assay-result: "2.12% (inactive)"
- compound: "COc1cc2c(cc1OC)-c1nnc(-c3cccs3)n1C(C)(C)C2"
  assay-result: "-11.8% (inactive)"

Given item CCCCc1cc(=O)oc2cc(OCC(=O)N(CC)CC)c(Cl)cc12 , the value recorded as its growth inhibition is -1.69% (inactive)

What the record says about COc1c(S(=O)(=O)n2nc(C)cc2C)ccc(Cl)c1Cl : growth inhibition is -5.31% (inactive)

// sample Cc1cc(N2C(=O)C3C4c5ccccc5C(c5ccccc54)C3C2=O)no1 (stereo not given) , its growth inhibition was -9.23% (inactive)

// sample CCN(CC)C1CCCCC1NS(=O)(=O)c1ccc(Cl)cc1 (stereo not given) , its growth inhibition was -12% (inactive)

Reported growth inhibition for CCCCOc1ccccc1NC(=O)CC1Nc2ccccc2NC1=O (stereo not given) was 6.14% (inactive)

Lab note: measured growth inhibition of O=C(CN1CCOc2ccccc21)NCc1ccco1 was -11.6% (inactive)

# growth inhibition (compound: O=C(c1ccc(Cl)s1)N1CCN(c2nc3ccccc3s2)CC1 ) is 3.6% (inactive)

Short answer for CCOC(=O)c1cc2c(=O)n3ccccc3nc2n(Cc2ccccc2)c1=N : growth inhibition was -1.11% (inactive)

growth inhibition for O=C1c2ccccc2C(Nc2ccc(-c3nc4ccccc4[nH]3)cc2)N1Cc1ccco1 (stereo not given) is -0.49% (inactive)

For record COc1ccc(NC(=O)CN(c2cc(C)cc(C)c2)S(=O)(=O)c2c(C)noc2C)cc1OC the listed growth inhibition is -9.49% (inactive)

The recorded growth inhibition for CCOC(=O)c1sc2nc(NC(=O)COc3ccccc3)sc2c1C is -2.58% (inactive)

# compound COc1ccc(NC(=O)CSc2nnc(Cc3cccn3C)n2-c2ccc(F)cc2)cc1OC ; its growth inhibition = 3.84% (inactive)

Please fill in: growth inhibition reported for N#Cc1cnc2sc3ccccc3n2c1=N = 0.55% (inactive)

Reported growth inhibition for O=C(NC1CCN(Cc2ccccc2)CC1)C1CCN(S(=O)(=O)c2cccc3cccnc23)CC1 was 5.75% (inactive)

Lab note: measured growth inhibition of CC(=O)NC(CCS(C)(=O)=O)C(=O)Nc1cccc2ccccc12 (stereo not given) was -12.6% (inactive)

What the record says about COc1ccccc1S(=O)(=O)Cc1ccc(C(=O)NCCN2CCCCCC2)o1 : growth inhibition is 2.4% (inactive)

Notebook: CN1CCN(C(=O)C2CCN(S(=O)(=O)c3ccc4c(c3)oc(=O)n4C)CC2)CC1 , growth inhibition read as -6.74% (inactive)

Looking up CC(C)c1ccc(NC(=O)CCNS(=O)(=O)c2cccc3nonc23)cc1 , I see its growth inhibition listed as -7.97% (inactive)

Field growth inhibition (entry CCOC(=O)C1CCCN(C(=O)Cc2c(C(=O)O)[nH]c3ccccc23)C1 (stereo not given) ) reads -7.59% (inactive)

Record summary for CCOC(=O)c1[nH]c(C)c(C(=O)Nc2ccc(C)cc2C)c1C : reported growth inhibition = -12.6% (inactive)

----------
Assay: HUVEC growth inhibition – cell-based, human, primary screen (AID 575);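 also: 100% = median of untreated cell wells with 0.1% DMSO on each plate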
Conditions: HUVEC proliferation, CellTiter-Glo luminescence, 72 h; at 10 µM; stronger effect = lower value
Rule: measured viability below 70% gets Fulfilled; anything equal to or greater than 70% gets Not fulfilled.

- compound: "COc1cccc(C(=O)OCn2nnc3ccccc3c2=O)c1OC"
  label-value: "Not fulfilled"
- compound: "CCOC(=O)c1sc2nc(NC(=O)C(C)(C)C)sc2c1C"
  label-value: "Fulfilled"
- compound: "O=C1C2C3C=CC(C3)C2C(=O)N1c1cccc(N2C(=O)C3C4C=CC(C4)C3C2=O)n1 (stereo not given)"
  label-value: "Not fulfilled"

### Prompt For CCOc1ccc(S(=O)(=O)n2c(C)nc3ccccc32)cc1 , is the recorded viability below the cut-off of 70%?
### Response Fulfilled

### Prompt For this compound, is viability lower than 70%? O=C(COC(=O)C1(c2ccccc2F)CCCC1)NC1CCS(=O)(=O)C1 (stereo not given)
### Response Not fulfilled

### Prompt Does COc1ccc(NC(=O)CN(c2cc(C)cc(C)c2)S(=O)(=O)c2c(C)noc2C)cc1OC have viability strictly under 70%?
### Response Not fulfilled

### Prompt I'd appreciate it if you could check whether CCOc1ccc(N(CC(=O)NC2CCCC(C)C2C)S(=O)(=O)c2c(C)noc2C)cc1 (stereo not given) has viability smaller than 70%.
### Response Fulfilled

### Prompt Is 70% strictly greater than the compound's reported viability? compound: CCN(CCNC(=O)C1CCN(S(=O)(=O)c2cccc3cccnc23)CC1)c1ccccc1
### Response Not fulfilled

### Prompt Is the reported viability for CCOC(=O)N1CCC(NC(=O)c2ccc(CS(=O)(=O)c3c(Cl)cccc3Cl)o2)CC1 strictly below 70%?
### Response Not fulfilled

----------
Experiment: MRP1 drug-resistance reversers in H69AR cells – cell-based, doxorubicin co-treatment, pilot screen (AID 601)
Conditions: H69AR cells, CellTiter-Glo, 72 h; compound alone cytotoxicity; at 10 µM
measured-metric: viability

A selection of reference data follows.
- molecule: "CCN1CCN(C(=O)c2oc(=O)c3ccccc3c2-c2ccc(C)cc2)CC1"
  viability: "96.4%"
- molecule: "COC(=O)C(C#N)C(=C1C(=O)CC(C)(C)CC1=O)c1ccc(O)cc1 (stereo not drawn)"
  viability: "92%"
- molecule: "Cc1cccc(NC(=O)CS(=O)(=O)c2cn(C)c3ccccc23)c1"
  viability: "90.6%"
- molecule: "Cc1ccc(S(=O)(=O)NCCOC(=O)Nc2sc(=S)n(C)c2C)cc1"
  viability: "101%"
- molecule: "Cc1ccc(OCC(O)CN2C(=O)NC(C)(C)C2=O)cc1C (stereo not drawn)"
  viability: "102%"

Looking up CC1Cc2nc(SCC(=O)N3CCCc4ccccc43)n(C)c(=O)c2S1 (stereo not drawn) , I found its viability recorded as 72%

What the record says about CCCCN(C(=O)c1ccc(Cl)cc1)C1CC2CCC(C1)N2C (stereo not drawn) : viability is 85.1%

viability for CCn1cc(C(=O)NCC2CCCO2)c(=O)c2cc(S(=O)(=O)N(C)C)ccc21 (stereo not drawn) is 88.6%

viability reported for this molecule CC12CN3CC(C)(CN(C1)C3c1ccc(Cl)cc1Cl)C2=O (stereo not drawn) : 80.9%

The reported viability of the molecule Cc1nc2ccc(S(=O)(=O)NC(C(=O)N3CCCC3)C(C)C)cc2s1 (stereo not drawn) was 97.3%

Lookup result for c1ccc(C2(Cn3ccc4ccccc43)OCCO2)cc1 ; measured viability: 94.9%

What the record says about Cc1noc(C(=O)Nc2ccc3c(c2)OCO3)c1Cl : viability is 96.9%

----------
# viability per record follows
Assay: reduced viability of SK-BR-3 breast cancer cells – cell-based, 24 h, human, pilot screen (AID 572);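 also: compound exposure lasted between 18 and 24 h rather than exactly 24 h; 100% = carrier-treated control wells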
Conditions: SK-BR-3 viability, CellTiter-Glo luminescence, at 10 µM, stronger effect = lower value
Your answer is read as %, so omit the unit and give the number.

Some solved entries appear below for comparison.
- compound: "CC(=O)OCCNc1cc(N2CCN(C)CC2)c2noc3c2c1C(=O)c1ccccc1-3"
  viability, %: 83
- compound: "COc1ccc(-n2c(Cc3cccn3C)nnc2SCC(=O)Nc2ccc(Cl)cc2)cc1"
  viability, %: 99
- compound: "COCCCN(C)C1CCN(C(=O)Nc2ccc(F)cc2)CC1"
  viability, %: 106

So for COc1ccc(C2CC(c3cccc(C)c3)n3ncnc3N2)cc1 (stereo not drawn) , the logged viability turned out to be 87.5

Note to self: viability recorded for COc1ccc(CCNC(=O)C2(C)CCC(=O)N2Cc2ccc3c(c2)OCO3)cc1OC (stereo not drawn) was 77.5

The compound listed as C/C=C/Cn1c(SCCCc2ccccc2)nc2c1c(=O)[nH]c(=O)n2C shows viability equal to 89.5

Cc1ccccc1NC(=O)C1CCCN(S(=O)(=O)c2cccc3cccnc23)C1 (stereo not drawn) has a reported viability of 90.5

GET /value?item= Cc1ccc(-c2nc3cnccn3c2Nc2ccc3c(c2)OCO3)o1 &field=viability returns 91.5

Consider COC(=O)CN1C(=O)CC(C)(C)S(=O)c2ccccc21 (stereo not drawn) . Its measured viability is 114

response.value for O=C(OCCN(CCOC(=O)c1ccncc1)S(=O)(=O)c1cccs1)c1ccncc1 (field: viability) = 102
